SYSTEM_NAME: Scavenger receptor class B member 1 (Mus musculus) (UniProt Q61009)
Sequence (Q61009 whole entry, looked up): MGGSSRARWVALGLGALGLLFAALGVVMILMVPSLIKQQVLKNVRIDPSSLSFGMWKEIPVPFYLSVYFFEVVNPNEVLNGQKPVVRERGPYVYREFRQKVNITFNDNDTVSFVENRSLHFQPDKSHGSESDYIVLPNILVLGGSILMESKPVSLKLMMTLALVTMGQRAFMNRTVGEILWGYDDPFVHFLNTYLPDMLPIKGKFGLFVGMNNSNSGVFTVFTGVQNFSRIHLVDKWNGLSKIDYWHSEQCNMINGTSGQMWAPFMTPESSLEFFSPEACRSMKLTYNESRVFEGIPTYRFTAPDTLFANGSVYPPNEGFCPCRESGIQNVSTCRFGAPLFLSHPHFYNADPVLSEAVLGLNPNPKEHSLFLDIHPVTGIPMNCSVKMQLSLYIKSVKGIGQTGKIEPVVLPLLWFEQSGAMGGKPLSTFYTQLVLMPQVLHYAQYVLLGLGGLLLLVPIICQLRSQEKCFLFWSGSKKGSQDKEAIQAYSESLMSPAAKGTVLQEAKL
ASSAY_SUMMARY: mouse SR-BI DiI-HDL uptake blockers – ldlA[mSR-BI] cells, fluorescence, single point, primary screen (AID 488896)
CONDITION_INFO: ldlA[mSR-BI] CHO cells, 3 h, at 12.5 µM
The campaign covered roughly 320,000 compounds. About 3,100 (0.97%) were called active.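 Rule for the calls: active = mean replicate inhibition of at least 70% and a set share of replicates each scoring 70 or more; inconclusive = meets just one of the two criteria; inactive = fails both criteria.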 The sample as a whole holds a higher share of actives than the screen did.
Select the correct class. Options are YES = active, NO = inactive and nothing else.

[in] Which outcome was entered for the compound COc1cc2c(cc1OC)C(Cc1cc(OC)c(OC)cc1[N+](=O)[O-])=NCC2 in this test?
[out] NO

[in] Which outcome was entered for the compound CCOc1cc(C(=O)N(Cc2ccccc2)c2ccc(C)cc2)ccc1OCC(=O)N1CCOCC1 in this test?
[out] NO

[in] Which outcome was entered for the compound O=C(NCCc1ccc(F)cc1)c1n[nH]c2ccccc12 in this test?
[out] NO

[in] Which outcome was entered for the compound O=C1OC(Oc2ccc(Br)cc2)(c2ccccc2)c2ccccc21 (stereo not given) in this test?
[out] NO

[in] Which outcome was entered for the compound O=C(NCC1CCCO1)c1cc2c([nH]c3ccccc32)c(-c2ccc(F)cc2)n1 (stereo not given) in this test?
[out] NO

[in] Which outcome was entered for the compound O=C(NCCCO)c1cc2c([nH]c3ccccc32)c(-c2ccc(F)cc2)n1 in this test?
[out] YES

[in] Which outcome was entered for the compound NC(=O)C1CCN(C(=O)c2cc(S(=O)(=O)N3CCN(c4ccccc4)CC3)ccc2Cl)CC1 in this test?
[out] NO

[in] Which outcome was entered for the compound COc1cc(C2c3cc4c(cc3C(O)C3COC(=O)C23)OCO4)cc(OC)c1OC (stereo not given) in this test?
[out] NO

[in] Which outcome was entered for the compound NS(=O)(=O)c1ccc(CCNC(=O)c2ccc(Cl)c(S(=O)(=O)N3CCCCCC3)c2)cc1 in this test?
[out] NO

[in] Which outcome was entered for the compound COc1ccc(CNC(=O)COC(=O)C2=Cc3ccccc3OC2)cc1 in this test?
[out] NO

====

SYSTEM_NAME: Scavenger receptor class B member 1 (Mus musculus) (UniProt Q61009)
ASSAY_SUMMARY: mouse SR-BI DiI-HDL uptake blockers – ldlA[mSR-BI] cells, fluorescence, single point, primary screen (AID 488896)
CONDITION_INFO: ldlA[mSR-BI] CHO cells, 3 h, at 12.5 µM
The campaign covered roughly 320,000 compounds. About 3,100 (0.97%) were called active.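 How the source made its calls: active means mean replicate inhibition of at least 70% and a set share of replicates each scoring 70 or more; inconclusive means meets just one of the two criteria; inactive means fails both criteria.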 The sample holds actives, similar compounds and a random draw of the others, so the mix is not that of the screen. Non-standard residues stand in square brackets, D forms with d. Residues, ends and D or L forms follow the SMILES beside them. ξ: configuration not given here. Ac5c = NC1(C(=O)O)CCCC1; ξS = NC(CO)C(=O)O
Select the correct class. Options are t for active, f for inactive and nothing else.

[in] Which outcome was entered for the compound O=C1/C(=C\c2ccc([N+](=O)[O-])cc2)CS(=O)(=O)C/C1=C/c1ccc([N+](=O)[O-])cc1 in this test?
[out] f

[in] Which outcome was entered for the compound O=C(N/N=C/c1sc(N2CCCCC2)nc1-c1cccs1)c1cccnc1 in this test?
[out] t

[in] Which outcome was entered for the compound CC/C(=C(/c1ccccc1)c1ccc(OCC[N+](C)(C)C)cc1)c1ccccc1 in this test?
[out] f

[in] Which outcome was entered for the compound O=C(CC1Sc2ccccc2NC1=O)NNc1ccc(Cl)c(Cl)c1 (stereo not given) in this test?
[out] f

[in] Which outcome was entered for the compound COc1ccc(C(CNC(=O)c2cccc(S(=O)(=O)Nc3ccccc3Cl)c2)N2CCOCC2)cc1 (stereo not given) in this test?
[out] t

[in] Which outcome was entered for the compound CCCOC(=O)c1[nH]c2c(c1C)C(=O)CC(c1cccs1)C2 (stereo not given) in this test?
[out] f

[in] Which outcome was entered for the compound COc1cc(NC(=O)c2ccc3c(c2)OCO3)ccc1NC(=O)c1cccs1 in this test?
[out] f

[in] Which outcome was entered for the compound CN(C(=O)c1cccc(NC(=O)Cc2ccc(NC(=O)C3CCCN(C(=O)C4CC4)C3)cc2)c1)C1CC1 (stereo not given) in this test?
[out] f

[in] Which outcome was entered for the compound COc1ccc(-c2csc(Cc3nc(O)cs3)n2)cc1 in this test?
[out] f

[in] Which outcome was entered for the compound C[C@@H]1ON(C)[C@H]2C[C@H]3c4cc(N5CCN(C)CC5)ccc4CCN3C(=O)[C@@H]12 in this test?
[out] f

[in] Which outcome was entered for the compound COc1ccc(/C(C)=N\NC(=O)c2ccc(-c3ccccc3)cc2)c(F)c1 in this test?
[out] f

[in] Which outcome was entered for the compound CCOc1cc(NC(=O)c2ccco2)c(OCC)cc1NC(=O)COc1ccccc1 in this test?
[out] t

[in] Which outcome was entered for the compound COCCOC(=O)c1[nH]c2c(c1C)C(=O)CC(c1ccc(OC)cc1)C2 (stereo not given) in this test?
[out] f

[in] Which outcome was entered for the compound O=C(N/N=C/c1ccc(OC(=O)c2ccccc2Cl)cc1)c1ccc(O)cc1 in this test?
[out] f

[in] Which outcome was entered for the compound Cc1cc2c(cc1C)NC1(C[C@H]3CCC(=O)N4CC[C@@H](C1)[C@@H]34)C(=NC(C)(C)CC(C)(C)C)N2 (stereo not given in full) in this test?
[out] f

[in] Which outcome was entered for the compound CCOc1ccc(C(C)=O)cc1COC(=O)c1cnc(Cl)c(Cl)c1 in this test?
[out] f

[in] Which outcome was entered for the compound CCOC(=O)C(CO)NC(=O)C1(NC(C)=O)CCCC1 (stereo not given) (Ac-[Ac5c]-[ξS]-OEt) in this test?
[out] f

[in] Which outcome was entered for the compound C[C@]12CCC(=O)C=C1C=CC1C2CC[C@@]2(C)C1CC[C@@]21CCC(=O)O1 (stereo not given in full) in this test?
[out] f

[in] Which outcome was entered for the compound CCOc1cc(NC(=S)NCCCOC)c(OCC)cc1NC(=O)c1ccco1 in this test?
[out] f

[in] Which outcome was entered for the compound COc1cc(NC(=O)c2cccs2)ccc1NC(=O)c1ccccc1Cl in this test?
[out] t

[in] Which outcome was entered for the compound CC(C)(C)C(=O)OCc1nc(-c2ccc(O)c(O)c2)cs1 in this test?
[out] f

[in] Which outcome was entered for the compound Cc1ccc(OCCNC(=O)c2cccc(S(=O)(=O)N3CCN(Cc4ccccc4)CC3)c2)cc1 in this test?
[out] f

[in] Which outcome was entered for the compound COc1cc(OC)cc(-c2nnc(N(C)C(=O)c3ccncc3)s2)c1 in this test?
[out] f

[in] Which outcome was entered for the compound CN(CCc1ccccc1)C(=O)c1cccc(NC(=O)Cc2cccc(NC(=O)C3CCCN(C(=O)CCc4ccccc4)C3)c2)c1 (stereo not given) in this test?
[out] t

[in] Which outcome was entered for the compound CCOc1ccc(C(C)=O)cc1COC(=O)CNC(=O)c1cccs1 in this test?
[out] t

[in] Which outcome was entered for the compound COc1ccc(C(CNC(=O)c2cccc(NS(=O)(=O)c3ccc(C)c(F)c3)c2)N2CCCC2)cc1 (stereo not given) in this test?
[out] f

[in] Which outcome was entered for the compound O=C(O)C(c1cccs1)C1(O)CCCCC1 (stereo not given) in this test?
[out] f

[in] Which outcome was entered for the compound CN1CCC(N(C)C(=O)c2ccc(Cl)c(S(=O)(=O)Nc3ccc(Cl)cc3)c2)CC1 in this test?
[out] f

[in] Which outcome was entered for the compound CCOc1cc(N2CCOCC2)c(OCC)cc1NC(=O)COc1cccc(Cl)c1 in this test?
[out] t

[in] Which outcome was entered for the compound CCOc1cc(N2CCOCC2)c(OCC)cc1NC(=O)c1cc(C)nc2ccccc12 in this test?
[out] f

[in] Which outcome was entered for the compound O=C(CNC(=O)c1cccnc1)N/N=C/c1cccnc1 in this test?
[out] f

[in] Which outcome was entered for the compound O=C1C=C(NS(=O)(=O)c2ccccc2)C(=O)c2ccccc21 in this test?
[out] f

[in] Which outcome was entered for the compound CN(CCc1ccccc1)C(=O)c1cccc(NC(=O)Cc2cccc(NC(=O)C3CCCN(C(=O)C4CCC4)C3)c2)c1 (stereo not given) in this test?
[out] f

[in] Which outcome was entered for the compound CN(C(=O)c1cccc(NC(=O)Cc2cccc(NC(=O)C3CCCN(C(=O)C4CC4)C3)c2)c1)C1CCC1 (stereo not given) in this test?
[out] f

[in] Which outcome was entered for the compound CCOc1cc(NC(=S)NCc2ccco2)c(OCC)cc1NC(=O)c1ccco1 in this test?
[out] f

[in] Which outcome was entered for the compound COc1cccc(C(=O)N/N=C(\C)c2cccc(NC(=O)c3ccc(F)cc3)c2)c1OC in this test?
[out] f

[in] Which outcome was entered for the compound CC(C)(C)OC(=O)N1CCC(C(=O)Nc2cccc(C(=O)NCCc3ccccc3)c2)CC1 in this test?
[out] f

[in] Which outcome was entered for the compound Cc1ccccc1OCC(=O)Nc1ccc(N2CCN(C(=O)C(C)C)CC2)c(Cl)c1 in this test?
[out] t

[in] Which outcome was entered for the compound CCCOC(=O)c1[nH]c2c(c1C)C(=O)CC(c1cc(OC)c(OC)c(OC)c1)C2 (stereo not given) in this test?
[out] t

[in] Which outcome was entered for the compound CCOc1ccc(C(C)=O)cc1COC(=O)CN1C(=O)NC2(CCCC2)C1=O in this test?
[out] f

Sourced from PubChem BioAssay AID488896
